system: MCF7; experiment: Anticancer activity against Homo sapiens (human) MCF7 cells assessed as cell growth at 100 uM after 48 hr by Alamar blue assay; type: functional; settings: MCF7, 48 h, read-out: Activity
Kindly state growth at 100 µM for each of the entries shown.
Field: numeric (%). Do not append units.

Check the records and state growth at 100 µM for "Cn1c(=O)c2nc3[nH]nc(C#N)c(=N)n3c2n(C)c1=O"
14

Output growth at 100 µM of "CCOC(=O)c1n[nH]c2nc3c(=O)n(C)c(=O)n(C)c3n2c1=N"
93

Dear colleague, please send me the reported growth at 100 µM for "Cn1c(=O)c2c(n(C)c1=O)n1c(-c3ccccc3)nnc1n2C" when you can.
84

Provide one value: measured growth at 100 µM of "Cn1c(=O)c2c(n(C)c1=O)n1c(-c3ccc(Cl)cc3)nnc1n2C"
82

###

Task for the reader: assign each of the following compounds its reported growth at 100 µM.
system: SF-268; experiment: Anticancer activity against Homo sapiens (human) SF268 cells assessed as cell growth at 100 uM after 48 hr by Alamar blue assay; type: functional; conditions: SF-268, 48 h, read-out: Activity

Please look at "Cn1c(=O)c2c(n(C)c1=O)n1c(-c3ccccc3)nnc1n2C" and tell me its recorded growth at 100 µM on SF-268.
90%

Please report growth at 100 µM with SF-268 for item "Cn1c(=O)c2nc3[nH]nc(C#N)c(=N)n3c2n(C)c1=O" .
47%

Using SF-268 as the test system, report measured growth at 100 µM of "Cn1c(=O)c2c(n(C)c1=O)n1c(-c3ccc(Cl)cc3)nnc1n2C" .
90%

Lab note: record growth at 100 µM of "CCOC(=O)c1n[nH]c2nc3c(=O)n(C)c(=O)n(C)c3n2c1=N" tested on SF-268.
98%

###

tested on: Aspergillus niger; experiment: Antimicrobial activity against Aspergillus niger ATCC 16404 after 48 hr by agar cup diffusion technique; type: functional
Would you kindly list inhibition zone (IZ) for each of these molecules?
// note: answer is a bare numeric in mm

Consider the molecule "Cn1c(=O)c2nc3[nH]nc(C(=O)O)c(=O)n3c2n(C)c1=O" . State its measured inhibition zone (IZ).
20

Retrieve inhibition zone (IZ) measured for "Cn1c(=O)c2nc3[nH]nc(C#N)c(=N)n3c2n(C)c1=O" and print it.
12

Tell me measured inhibition zone (IZ) for "Cn1c(=O)c2c(n(C)c1=O)n1c(-c3ccccc3)nnc1n2C" please.
16

Give the value of inhibition zone (IZ) reported for the following: "Cn1c(=O)c2c(n(C)c1=O)n1c(-c3ccc(Br)cc3)nnc1n2C"
22

###

Record form. Attribute: inhibition zone (IZ). Fill in for each entry.
system: Escherichia coli; experiment: Antimicrobial activity against Escherichia coli 5933 after 24 hr by agar cup diffusion technique; format: functional
The reply should contain only the number, in mm.

Please list inhibition zone (IZ) recorded for the molecule "Cn1c(=O)c2nc3[nH]nc(C#N)c(=N)n3c2n(C)c1=O"
14

Give the reported value of inhibition zone (IZ) for this record: "CCSc1nnc2n(C)c3c(=O)n(C)c(=O)n(C)c3n12"
12

Give reported inhibition zone (IZ) value for "CSc1nnc2n(C)c3c(=O)n(C)c(=O)n(C)c3n12"
12

Output inhibition zone (IZ) of "Cn1c(=O)c2c(n(C)c1=O)n1c(=S)[nH]nc1n2C"
12

Return inhibition zone (IZ) (reported value) for this molecule: "Cn1c(=O)c2c(n(C)c1=O)n1c(-c3ccc(Br)cc3)nnc1n2C"
12

Supply inhibition zone (IZ) value. Item: "CC(=O)c1n[nH]c2nc3c(=O)n(C)c(=O)n(C)c3n2c1=O"
14
